The reader will find reported Direct Addition % Regulation values listed item by item below.
Target: human TRPA1 (Homo sapiens)
Construct: expressed in transfected cells; host or cells: HEK-293
Sequence (O75762 whole entry): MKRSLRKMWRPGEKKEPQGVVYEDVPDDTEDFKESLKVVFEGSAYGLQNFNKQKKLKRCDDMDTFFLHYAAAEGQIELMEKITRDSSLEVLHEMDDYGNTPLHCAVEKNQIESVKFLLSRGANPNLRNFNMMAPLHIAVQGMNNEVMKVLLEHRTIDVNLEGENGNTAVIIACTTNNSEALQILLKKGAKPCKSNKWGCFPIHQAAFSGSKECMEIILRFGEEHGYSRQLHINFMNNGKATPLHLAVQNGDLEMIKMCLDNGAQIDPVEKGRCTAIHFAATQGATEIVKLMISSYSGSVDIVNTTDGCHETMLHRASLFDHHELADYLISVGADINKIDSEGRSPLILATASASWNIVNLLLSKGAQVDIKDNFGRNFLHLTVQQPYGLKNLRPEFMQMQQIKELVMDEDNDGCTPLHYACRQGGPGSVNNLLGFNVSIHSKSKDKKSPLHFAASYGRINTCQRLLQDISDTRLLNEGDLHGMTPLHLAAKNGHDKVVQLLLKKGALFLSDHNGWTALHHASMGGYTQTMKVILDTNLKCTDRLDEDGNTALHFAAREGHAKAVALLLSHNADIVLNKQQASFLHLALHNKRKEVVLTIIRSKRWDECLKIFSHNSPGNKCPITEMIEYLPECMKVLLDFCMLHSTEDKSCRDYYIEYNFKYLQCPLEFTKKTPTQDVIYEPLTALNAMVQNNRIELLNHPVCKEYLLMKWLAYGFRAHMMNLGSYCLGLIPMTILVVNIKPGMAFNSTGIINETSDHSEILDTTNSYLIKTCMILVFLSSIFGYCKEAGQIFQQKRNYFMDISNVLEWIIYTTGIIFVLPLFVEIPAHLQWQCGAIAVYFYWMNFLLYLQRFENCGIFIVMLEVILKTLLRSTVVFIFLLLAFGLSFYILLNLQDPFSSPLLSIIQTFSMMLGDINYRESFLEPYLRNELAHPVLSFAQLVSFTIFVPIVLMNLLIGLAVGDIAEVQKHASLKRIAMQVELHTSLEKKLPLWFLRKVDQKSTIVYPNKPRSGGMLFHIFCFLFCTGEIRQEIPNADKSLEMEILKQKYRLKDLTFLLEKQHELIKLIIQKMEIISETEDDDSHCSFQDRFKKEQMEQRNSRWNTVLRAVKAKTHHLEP
Experiment: Direct Addition Test Method, TRPA1 (FLIPR intracellular calcium)
Assay type: cell-based
Conditions: TRPA1; HEK-293 cells; compound final concentration 100 μM, no pre-incubation; AITC as positive control
Answer by giving the amount and then stating its unit.

Please review the entries below; each comes with its answer.
1) CC(C)C(=O)OCCOc1ccccc1 [Phenoxyethyl Isobutyrate, phenoxyethyl isobutyrate] = −7.84%
2) OCc1ccccc1 = 21.39%
3) Cc1cc(O)cc(C)c1Cl = 381.06%
4) C=C1CCC(C)C(C)(C)C1/C=C/C(C)=O (centres unmarked) = 4.96%

Turning to the following compound.
Prompt: Any idea what Direct Addition % Regulation was measured for Cc1cc(O)ccc1Cl ?
Response: 319.54%

----------
Target: human TRPV1 (Homo sapiens, UniProt Q8NER1)
Construct: expressed in transfected cells; host or cells: HEK-293
Sequence (Q8NER1 whole entry): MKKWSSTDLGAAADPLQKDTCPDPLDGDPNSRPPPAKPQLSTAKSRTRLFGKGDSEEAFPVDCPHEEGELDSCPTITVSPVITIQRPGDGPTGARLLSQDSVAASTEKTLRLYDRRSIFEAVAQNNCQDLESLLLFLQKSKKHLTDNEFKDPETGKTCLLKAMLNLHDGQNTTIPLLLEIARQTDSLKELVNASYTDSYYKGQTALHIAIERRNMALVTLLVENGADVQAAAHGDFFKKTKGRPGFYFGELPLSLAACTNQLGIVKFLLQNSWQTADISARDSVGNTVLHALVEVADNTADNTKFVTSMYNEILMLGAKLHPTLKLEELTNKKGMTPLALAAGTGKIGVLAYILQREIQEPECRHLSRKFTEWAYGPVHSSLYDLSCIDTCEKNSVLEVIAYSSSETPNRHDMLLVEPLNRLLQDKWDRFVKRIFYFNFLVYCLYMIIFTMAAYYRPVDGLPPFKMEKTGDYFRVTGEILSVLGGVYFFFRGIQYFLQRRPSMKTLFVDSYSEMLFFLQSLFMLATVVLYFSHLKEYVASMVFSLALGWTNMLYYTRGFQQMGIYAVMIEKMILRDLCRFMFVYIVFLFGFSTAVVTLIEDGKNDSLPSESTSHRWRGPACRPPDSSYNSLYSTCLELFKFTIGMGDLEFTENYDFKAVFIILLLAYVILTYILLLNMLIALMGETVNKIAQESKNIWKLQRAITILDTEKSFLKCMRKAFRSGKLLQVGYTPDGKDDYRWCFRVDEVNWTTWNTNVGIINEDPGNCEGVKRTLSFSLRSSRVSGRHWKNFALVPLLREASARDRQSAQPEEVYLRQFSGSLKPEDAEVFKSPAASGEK
Assay: Direct Addition Test Method, TRPV1 (FLIPR intracellular calcium)
Format: cell-based
Details: TRPV1; HEK-293 cells; compound final concentration 100 μM, no pre-incubation; capsaicin as positive control
Direct Addition % Regulation reference
Just the number please, in %, no unit attached.

Example cases with answers are listed next.
1. CC(C)C(=O)OCCOc1ccccc1 [Phenoxyethyl Isobutyrate, phenoxyethyl isobutyrate] = −6.84
2. Cc1cc(O)cc(C)c1Cl = 326.69
3. C=C1CCC(C)C(C)(C)C1/C=C/C(C)=O (centres unmarked) = 5.24
4. OCc1ccccc1 = −2.09

Prompt: # lookup: Direct Addition % Regulation of Cc1cc(O)ccc1Cl
Response: 292.92

----------
Biological target: human TRPV1 (Homo sapiens, UniProt Q8NER1)
Construct: expressed in transfected cells; host or cells: HEK-293
Assay: Pre-Incubation Test Method, TRPV1 (FLIPR intracellular calcium, capsaicin activator)
Type: cell-based
Details: TRPV1; HEK-293 cells; test compound final concentration 100 μM, 30 minutes pre-incubation; activator Capsaicin 300 nM
Entries and their measured Pre-incubation % Regulation follow.
Give just the number in %; leave the unit off.

1) C=C1CCC(C)C(C)(C)C1/C=C/C(C)=O (centres unmarked) = 22.16

Prompt: Please look up its Pre-incubation % Regulation: CC(C)C(=O)OCCOc1ccccc1 [Phenoxyethyl Isobutyrate, phenoxyethyl isobutyrate]
Response: 41.34

Prompt: Input Cc1cc(O)ccc1Cl
Response: 47.49

Prompt: Try the compound OCc1ccccc1
Response: 51.18

Prompt: Another compound to look at: Cc1cc(O)cc(C)c1Cl
Response: 37.52
